test: binders of probe aFGF2 on microarray, primary screen, stem cell growth factor project, biochemical, small-molecule microarray, fluorescence 635/667 (AID 1067); conditions: higher = more signal;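 note: measures binding of biotinylated aFGF2 protein to printed compounds on slides; z-score merges feature fluorescence and signal-to-noise across triplicate slides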
// reported composite z-score per item

COMPOUND	composite z-score
CC(C)C(=C=CC[C@@H](O)c1ccccc1OCCO)C[C@@H](O)COCc1ccccc1	-0.072
C=C(COC)/C(=C/C[C@@H](OC(=O)c1ccncc1)c1ccc(OCCO)cc1)c1cnc2ccccc2c1	0.124
COc1ccc(C(O)C2C=CC3C(=O)N(C)C(=O)C3N2N2CCCCC2)cc1 (configuration not stated)	0.213
CCOC(=O)C[C@H]1[C@H](OC(=O)c2ccccc2-c2ccccc2)[C@@H](NC(=O)c2ccc3ccccc3n2)c2cc(OCCCO)ccc2N1C(=O)c1ccc2ccccc2n1	-0.074
O=C(O)[C@H]1C[C@H]2C(=O)N3CCC[C@H]3C(=O)N2[C@H]1c1cccc(OCCO)c1	-0.0985
O=C1OCC=C[C@H]2OC34C=CCN(Cn5nnc6ccccc65)C(=O)[C@H]3N(CCCCCCO)C(=O)[C@@H]4[C@@H]12 (some centres not stated)	-0.163
CO[C@H]1O[C@H](CO)[C@@H](OC(=O)Nc2ccccc2-c2ccccc2)[C@H](OC(=O)Nc2ccc3c(c2)OCO3)[C@@H]1OC(=O)Nc1ccc2c(c1)OCO2	0.0826
C=CC[C@H](OC(=O)Nc1ccc(OC)cc1)c1ccc(O)c2ccccc12	-0.0894
NC(=O)NCC#Cc1ccc2c(c1)[C@]1(C(=O)N2)[C@H](c2ccc(O)cc2)N2[C@H](c3ccccc3)[C@H](c3ccccc3)OC(=O)[C@H]2[C@@H]1C(=O)Nc1nc2ccccc2s1	-0.0222
C=C[C@H](COC(C)=O)NS(=O)(=O)c1ccc(Br)cc1	-0.151
O=C1C2C=CC(C(O)c3cc(C(F)(F)F)cc(C(F)(F)F)c3)N(Nc3ccc([N+](=O)[O-])cc3)C2C(=O)N1c1ccccc1 (configuration not stated)	0.0678
COc1ccc([Si](C)(C)[C@@H]2[C@@H](CC(=O)N3CCC[C@H]3CO)O[C@]3(C(=O)N(Cc4ccc(N5C(=O)c6cccc7cccc5c67)cc4)c4ccccc43)[C@H]2C)cc1	-0.0563
COc1cc2c(cc1O)C(C)N(Cc1cc3c(cc1Br)OCO3)CC2 (configuration not stated)	-0.0951
O=C1O[C@@H](c2ccccc2)[C@@H](c2ccccc2)N2[C@@H](c3ccccc3OCCO)[C@]3(C(=O)Nc4ccc(C#CCCO)cc43)[C@@H](C(=O)N3CCN(c4ncccn4)CC3)[C@H]12	-0.0004
O=C(CS)NCCCCCCNC(=O)[C@@H]1C[C@@H]2C(=O)N3CCC[C@H]3C(=O)N2[C@@H]1c1cccc(OCCO)c1	0.109
C[N+](C)(C)CCCC[C@@H]1NC(=O)[C@@H]2C[C@H](C(=O)O)[C@H](c3ccc(O)cc3)N2C1=O	-0.119
O=C1O[C@@H](c2ccccc2)[C@@H](c2ccccc2)N2[C@@H](c3ccc(O)cc3)[C@]3(C(=O)Nc4ccc(C#CC5=CCCCC5)cc43)[C@@H](C(=O)N3CCN(c4ncccn4)CC3)[C@H]12	-0.0287
